Measured Ki accompanies every entry in the list below.
Molecular target: human α2δ-1 subunit of Cav2.2 calcium channel (Homo sapiens (Human), UniProt P54289)
Sequence (P54289 25-1103): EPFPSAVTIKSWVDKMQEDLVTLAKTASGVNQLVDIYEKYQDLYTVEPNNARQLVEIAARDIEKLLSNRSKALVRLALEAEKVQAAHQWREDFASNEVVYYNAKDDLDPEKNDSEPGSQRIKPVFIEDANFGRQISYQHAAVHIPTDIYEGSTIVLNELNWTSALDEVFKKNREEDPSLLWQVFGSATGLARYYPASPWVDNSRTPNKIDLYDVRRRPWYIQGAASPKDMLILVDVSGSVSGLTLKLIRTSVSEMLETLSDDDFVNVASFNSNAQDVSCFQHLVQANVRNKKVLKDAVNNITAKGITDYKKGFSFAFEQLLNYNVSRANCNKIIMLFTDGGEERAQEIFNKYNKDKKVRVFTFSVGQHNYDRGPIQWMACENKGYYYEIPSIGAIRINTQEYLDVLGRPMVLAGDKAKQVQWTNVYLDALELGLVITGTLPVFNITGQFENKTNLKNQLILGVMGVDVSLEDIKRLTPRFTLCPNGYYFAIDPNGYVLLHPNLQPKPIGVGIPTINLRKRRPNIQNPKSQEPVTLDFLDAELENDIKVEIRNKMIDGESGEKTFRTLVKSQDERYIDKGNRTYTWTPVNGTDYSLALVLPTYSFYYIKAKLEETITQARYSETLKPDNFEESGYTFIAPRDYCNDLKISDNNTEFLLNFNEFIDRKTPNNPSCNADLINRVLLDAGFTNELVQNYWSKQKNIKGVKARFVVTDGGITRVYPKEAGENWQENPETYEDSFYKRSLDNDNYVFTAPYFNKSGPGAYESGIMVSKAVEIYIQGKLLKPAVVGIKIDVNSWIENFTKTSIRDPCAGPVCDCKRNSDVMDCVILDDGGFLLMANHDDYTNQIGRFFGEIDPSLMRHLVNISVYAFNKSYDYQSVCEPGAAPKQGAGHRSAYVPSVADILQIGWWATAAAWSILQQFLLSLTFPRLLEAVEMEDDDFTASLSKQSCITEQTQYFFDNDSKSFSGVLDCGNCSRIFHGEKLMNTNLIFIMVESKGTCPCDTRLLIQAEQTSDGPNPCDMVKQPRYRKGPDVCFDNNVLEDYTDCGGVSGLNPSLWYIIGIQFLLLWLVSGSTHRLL
Assay: Binding assay to human α2δ-1 subunit of Cav2.2 calcium channel ([3H]-Gabapentin)
Details: Table 1, human α2δ-1 enriched membranes, read-out: Ki (nM) alpha2delta Hum

Example entries and their recorded answers appear below.
>>> print(df.to_string())
                                   compound     data_value
0         CNCC[C@H](Oc1cccc2ncccc12)c1nccs1  100 to 500 nM
1     CNCC[C@@H](Oc1cccc2c(C)nccc12)c1cccs1       < 100 nM
2  CNCCC(Oc1cccc2cnccc12)c1sccc1F (stereo not shown)  100 to 500 nM
3  CNCCC(Oc1cccc2ncccc12)c1ccccn1 (stereo not shown)      ≥ 3000 nM
4  CNCCC(Oc1cccc2cnccc12)c1cc(C(F)(F)F)ccn1 (stereo not shown)      ≥ 3000 nM

get_value(item= CNCCC(Oc1ccc2ccncc2c1)c1cccs1 (stereo not shown) , readout=Ki) returns ≥ 3000 nM

get_value(item= CNCCC(Oc1cccc2cnccc12)c1ccccn1 (stereo not shown) , readout=Ki) returns ≥ 3000 nM

get_value(item= CNCCC(Oc1cccc2ccncc12)C1CCOCC1 (stereo not shown) , readout=Ki) returns ≥ 3000 nM

---

Molecular target: human norepinephrine transporter (NET) (Homo sapiens (Human), UniProt P23975)
Sequence (P23975 whole entry): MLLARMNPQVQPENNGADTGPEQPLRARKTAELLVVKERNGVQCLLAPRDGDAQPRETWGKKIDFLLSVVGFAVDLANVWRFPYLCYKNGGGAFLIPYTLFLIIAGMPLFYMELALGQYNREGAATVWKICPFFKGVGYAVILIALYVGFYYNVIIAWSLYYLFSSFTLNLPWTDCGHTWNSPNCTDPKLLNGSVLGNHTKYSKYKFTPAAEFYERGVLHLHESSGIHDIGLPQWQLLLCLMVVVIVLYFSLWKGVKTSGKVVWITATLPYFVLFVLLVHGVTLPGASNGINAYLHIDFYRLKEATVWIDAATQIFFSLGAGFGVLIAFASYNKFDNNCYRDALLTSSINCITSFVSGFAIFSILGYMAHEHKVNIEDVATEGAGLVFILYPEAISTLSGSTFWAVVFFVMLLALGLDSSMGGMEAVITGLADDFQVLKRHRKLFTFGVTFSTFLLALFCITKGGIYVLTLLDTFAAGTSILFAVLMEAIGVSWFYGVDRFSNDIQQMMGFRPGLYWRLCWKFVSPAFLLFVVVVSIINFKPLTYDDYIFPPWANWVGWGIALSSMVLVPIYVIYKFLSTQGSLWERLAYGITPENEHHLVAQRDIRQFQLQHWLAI
Experiment: Binding assay to human norepinephrine transporter (NET) ([3H]-Nisoxetin)
Conditions: Table 2, dual compounds, human NET enriched membranes, read-out: Ki (nM) NET Hum
endpoint_name: Ki

Example entries and their recorded answers appear below.
>>> print(df.to_string())
                                   compound  endpoint_name      data_value
0  CNCCC(Oc1cccc2ccncc12)c1sccc1F (stereo not drawn) [Example 47]             Ki   100 to 500 nM
1  CNCCC(Oc1cccc2ccncc12)c1cc(C(F)(F)F)ccn1 (stereo not drawn) [Example 30]             Ki  500 to 1000 nM

Next up:
get_value(item= CNCC[C@H](Oc1cccc2cnccc12)c1sccc1F [Example 82] , readout=Ki) returns < 100 nM

---

Measured Ki accompanies every entry in the list below.
Biological target: human α2δ-1 subunit of Cav2.2 calcium channel (Homo sapiens (Human), UniProt P54289)
Experiment: Binding assay to human α2δ-1 subunit of Cav2.2 calcium channel ([3H]-Gabapentin)
Conditions: Table 2, dual compounds, human α2δ-1 enriched membranes, read-out: Ki (nM) alpha2delta Hum
Experimental: Binding Assay to Human α2δ-1 Subunit of Cav2.2 Calcium Channel. Human α2δ-1 enriched membranes (2.5 μg) were incubated with 15 nM of radiolabeled [3H]-Gabapentin in assay buffer containing Hepes-KOH 10 mM, pH 7.4. NSB (non specific binding) was measured by adding 10 μM pregabalin. The binding of the test compound was measured at five different concentrations. […] Filter plates were dried at 60° C. for 1 h and 30 μl of scintillation cocktail were added to each well before radioactivity reading. […]

Example entries and their recorded answers appear below.
>>> df
                                   compound      data_value
0  CNCCC(Oc1cccc2ncccc12)c1cccs1 (stereo not drawn)   100 to 500 nM
1        CNCC[C@H](Oc1cccc2ncccc12)c1sccc1F  500 to 3000 nM
2  CNCCC(Oc1cccc2ccncc12)c1ccsc1 (stereo not drawn)   100 to 500 nM

get_value(item= CNCC[C@H](Oc1cccc2cnccc12)c1sccc1F , readout=Ki) returns ≥ 3000 nM

get_value(item= CNCCC(Oc1cccc2cnccc12)c1ccsc1 (stereo not drawn) , readout=Ki) returns 100 to 500 nM

get_value(item= CNCCC(Oc1cccc2ncccc12)c1ccc(Cl)s1 (stereo not drawn) , readout=Ki) returns 100 to 500 nM

---

Measured Ki accompanies every entry in the list below.
Target: human α2δ-1 subunit of Cav2.2 calcium channel (Homo sapiens (Human), UniProt P54289)
Assay: Binding assay to human α2δ-1 subunit of Cav2.2 calcium channel ([3H]-Gabapentin)
Details: Table 2, dual compounds, human α2δ-1 enriched membranes, read-out: Ki (nM) alpha2delta Hum

Example entries and their recorded answers appear below.
>>> print(df.to_string())
                                   molecule  endpoint_name     data_value
0  CNCC[C@H](Oc1cccc2ccncc12)c1cccs1 [Example 10]             Ki      ≥ 3000 nM
1  CNCCC(Oc1cccc2cnccc12)C1CCOCC1 (centres unmarked) [Example 18]             Ki      ≥ 3000 nM
2  CNCC[C@H](Oc1cccc2ccncc12)c1cccs1 (stereo in doubt) [Example 12]             Ki  100 to 500 nM
3  CNCC[C@H](Oc1cccc2ncccc12)c1ccc(F)s1 [Example 51]             Ki  100 to 500 nM

Next up:
get_value(item= CNCC[C@H](Oc1cccc2cnccc12)c1ccc(F)s1 [Example 50] , readout=Ki) returns 500 to 3000 nM

---

Measured Ki accompanies every entry in the list below.
Target: UniProtKB P23975
Experiment: Binding assay to human norepinephrine transporter (NET) ([3H]-Nisoxetin)
Conditions: Table 2, dual compounds, human NET enriched membranes, read-out: Ki (nM) NET Hum

>>> print(df.to_string())
                                   compound   measured_target  endpoint_name      data_value
0  CNCCC(Oc1cccc2ncccc12)c1sccc1F (stereo not shown) [Example 48]  UniProtKB P23975             Ki   100 to 500 nM
1  CNCC[C@@H](Oc1cccc2ncccc12)c1sccc1F [Example 85]  UniProtKB P23975             Ki   100 to 500 nM
2  CNCCC(Oc1cccc2ccncc12)c1ccsc1 (stereo not shown) [Example 58]  UniProtKB P23975             Ki  500 to 1000 nM

Next up:
UniProtKB P23975 assay, compound CNCC[C@H](Oc1cccc2ncccc12)c1ccc(Cl)s1 [Example 78] , recorded Ki = 100 to 500 nM

---

Target: human α2δ-1 subunit of Cav2.2 calcium channel (Homo sapiens (Human), UniProt P54289)
Assay: Binding assay to human α2δ-1 subunit of Cav2.2 calcium channel ([3H]-Gabapentin)
Settings: Table 1, human α2δ-1 enriched membranes, read-out: Ki (nM) alpha2delta Hum
Method: Binding Assay to Human α2δ-1 Subunit of Cav2.2 Calcium Channel. Human α2δ-1 enriched membranes (2.5 μg) were incubated with 15 nM of radiolabeled [3H]-Gabapentin in assay buffer containing Hepes-KOH 10 mM, pH 7.4. NSB (non specific binding) was measured by adding 10 μM pregabalin. The binding of the test compound was measured at five different concentrations. […] Filter plates were dried at 60° C. for 1 h and 30 μl of scintillation cocktail were added to each well before radioactivity reading. […]
Measured Ki accompanies every entry in the list below.

Example entries and their recorded answers appear below.
In [3]: df
Out[3]:
                                   compound      data_value
0  CNCCC(Oc1cccc2ncccc12)c1ccncc1 (centres unmarked) [Example 35]       ≥ 3000 nM
1  CNCC[C@H](Oc1cccc2cnccc12)c1sccc1F [Example 82]       ≥ 3000 nM
2  CN(C)CCC(Oc1cccc2cnccc12)c1cccs1 (centres unmarked) [Example 43]  500 to 3000 nM
3  CNCC[C@H](Oc1cccc2ccncc12)c1sccc1F [Example 86]       ≥ 3000 nM
4  CNCCC(Oc1cccc2ncccc12)c1cccnc1 (centres unmarked) [Example 36]       ≥ 3000 nM

get_value(item= CNCC[C@H](Oc1cccc2ncccc12)c1ccc(F)s1 [Example 51] , readout=Ki) returns 100 to 500 nM

get_value(item= CCNCC[C@H](Oc1cccc2c(C#N)nccc12)c1cccs1 [Example 91] , readout=Ki) returns 100 to 500 nM

get_value(item= CNCC[C@@H](Oc1cccc2ccncc12)c1cccs1 [Example 13] , readout=Ki) returns 100 to 500 nM

get_value(item= CNCC[C@@H](Oc1cccc2ccncc12)c1sccc1F [Example 87] , readout=Ki) returns 100 to 500 nM

get_value(item= CNCC[C@@H](Oc1cccc2cnccc12)c1sccc1F [Example 83] , readout=Ki) returns 100 to 500 nM

get_value(item= CNCC[C@H](Oc1cccc2ccncc12)c1ccsc1 [Example 69] , readout=Ki) returns ≥ 3000 nM

get_value(item= CCNCC[C@@H](Oc1cccc2c(C#N)nccc12)c1cccs1 [Example 89] , readout=Ki) returns < 100 nM

get_value(item= CNCCC(Oc1cccc2ccncc12)c1cccnc1 (centres unmarked) [Example 21] , readout=Ki) returns ≥ 3000 nM

get_value(item= CNCC[C@@H](Oc1cccc2ncccc12)c1ccc(F)s1 [Example 53] , readout=Ki) returns < 100 nM

get_value(item= CNCCC(Oc1cccc2cccnc12)c1cccs1 (centres unmarked) [Example 1] , readout=Ki) returns ≥ 3000 nM

get_value(item= CNCCC(Oc1ccc2cnccc2c1)c1cccs1 (centres unmarked) [Example 54] , readout=Ki) returns 500 to 3000 nM

get_value(item= CNCC[C@@H](Oc1cccc2ncccc12)c1ccsc1 [Example 63] , readout=Ki) returns 100 to 500 nM

get_value(item= CNCCC(Oc1cccc2ccncc12)c1cccc(C(F)(F)F)n1 (centres unmarked) [Example 24] , readout=Ki) returns ≥ 3000 nM

get_value(item= CCNCC[C@@H](Oc1cccc2cnccc12)c1cccs1 [Example 88] , readout=Ki) returns 100 to 500 nM

get_value(item= CNCCC(Oc1cccc2ccncc12)c1ccc(F)s1 (centres unmarked) [Example 49] , readout=Ki) returns 100 to 500 nM

get_value(item= CNCCC(Oc1cccc2c(C(N)=O)nccc12)c1cccs1 (centres unmarked) [Example 16] , readout=Ki) returns < 100 nM

get_value(item= CNCC[C@H](Oc1cccc2cnccc12)c1ccc(F)s1 [Example 50] , readout=Ki) returns 500 to 3000 nM

get_value(item= CNCCC(Oc1cccc2ccncc12)c1ccc(C(F)(F)F)nc1 (centres unmarked) [Example 39] , readout=Ki) returns ≥ 3000 nM

get_value(item= CNCCC(Oc1cccc2ncccc12)c1sccc1F (centres unmarked) [Example 48] , readout=Ki) returns 100 to 500 nM
